Catalogue of compounds with associated GI50
system: TK-10; assay: NCI tumour cell line growth inhibition, 48 h
Active and inactive are the calls of the source. Rule as the data show it: active = GI50 up to about 1.1 µM and inactive = higher.

The cases that follow already have their GI50 on record.
[[record]]
compound = "COc1cccc(NC(=O)c2c(N)n[nH]c2SC)c1"
assay_metric = "GI50"
observed_value = "> 100 µM (inactive)"

[[record]]
compound = "CC(=O)Nc1ccc2cc3c(nc2n1)c1cccnc1n3S(=O)(=O)c1ccccc1"
assay_metric = "GI50"
observed_value = "> 100 µM (inactive)"

[[record]]
compound = "CC1(C)C2CCC3(OCCO3)C1C(O)C2 (configuration not stated)"
assay_metric = "GI50"
observed_value = "> 100 µM (inactive)"

[[record]]
compound = "c1ccc(COc2cccc3cccnc23)cc1"
assay_metric = "GI50"
observed_value = "> 100 µM (inactive)"

[[record]]
compound = "CC(=O)n1cc(OP(=O)(Oc2ccccc2)Oc2ccccc2)c2ccccc21"
assay_metric = "GI50"
observed_value = "50.6 µM (inactive)"


Item C=CCCCCCCCCCCCC1CCC(CC)N1 (configuration not stated) has what recorded GI50?
16.8 µM (inactive)

Item O=C1Cc2c(-c3ccc(Cl)cc3)cc(-c3ccccc3)nc2-c2ccccc2N1 has what recorded GI50?
6.07 µM (inactive)

Item Cc1c(Cl)cccc1NC(=O)/C=C/c1ccccc1 has what recorded GI50?
> 100 µM (inactive)

Item COc1ccc2c(c1)N=C1CSC(c3ccccc3Cl)N1C2 (configuration not stated) has what recorded GI50?
17.1 µM (inactive)

Item COC(=O)CCC(=O)c1ccc2c(c1)CC1(C2)Cc2ccc(C(=O)CCC(=O)OC)cc2C1 has what recorded GI50?
82.6 µM (inactive)

Item OCc1ccc2c(c1)CC1(Cc3ccccc3C1)C2 has what recorded GI50?
21.2 µM (inactive)

Item CCSC1=CC(Cc2ccc(OC)cc2)N(C(=O)OC)C1 (configuration not stated) has what recorded GI50?
> 100 µM (inactive)

* * *

test system: SK-MEL-2; assay: NCI tumour cell line growth inhibition, 48 h
Calls of active or inactive are those of the source. Rule as the data show it: active = GI50 up to about 1.1 µM and inactive = higher.
I would appreciate it if you answered using one of these outcomes: active, inactive

Solved cases below.
[[record]]
molecule = "O=C(Nc1ccc(N2C(=O)CSC2c2cccs2)cc1)c1ccc(N2C(=O)CSC2c2cccs2)cc1 (stereo not drawn)"
assigned_category = "inactive"

[[record]]
molecule = "CC[C@@]1(O)C(=O)OCc2c1cc1n(c2=O)Cc2cc3c(OC)cccc3nc2-1"
assigned_category = "active"

[[record]]
molecule = "CC(=O)Nc1ccc2cc3c(nc2n1)c1cccnc1n3S(=O)(=O)c1ccccc1"
assigned_category = "inactive"

[[record]]
molecule = "Nc1cc2c(C3OC(CO)C(O)C3O)n[nH]c2c(=S)[nH]1 (stereo not drawn)"
assigned_category = "inactive"

[[record]]
molecule = "CN(C)CC1CCC/C(=C\\c2ccc(OC(=O)/C=C/c3ccccc3)cc2)C1=O (stereo not drawn)"
assigned_category = "inactive"


Just curious, what result did O=C1/C(=C/c2ccccc2Cl)COc2ccc(Br)cc21 get here?
inactive

Just curious, what result did Cc1cc2c(C(C)C)c(O)c(O)c(/C=N/c3ccccc3)c2c(O)c1-c1c(C)cc2c(C(C)C)c(O)c(O)c(/C=N/c3ccccc3)c2c1O get here?
inactive

Just curious, what result did CCCCCCCC(=O)OC[n+]1ccc(-c2c(COC(=O)NC(C)C)c(COC(=O)NC(C)C)c3n2CCC3)cc1 get here?
inactive

Just curious, what result did COc1cc2c(c(C)c1O)[C@H]1COc3ccccc3[C@H]1O2 get here?
inactive

Just curious, what result did Cc1sc(NC=C2C(=O)CC(C)(C)CC2=O)nc1-c1ccccc1 get here?
inactive

Just curious, what result did CO/C(=N/N1CC1C(F)(F)F)c1ccncc1 (stereo not drawn) get here?
inactive

Just curious, what result did Cn1c2c(c3ccccc31)CCN(CCCCN1CCCCC1)C2=O get here?
inactive

Just curious, what result did CC1=C(C(N)=O)C(c2ccncc2)C(C#N)C(=O)N1 (stereo not drawn) get here?
inactive

Just curious, what result did CC(C)N(/C(F)=N\C(=O)Nc1ccccc1C(F)(F)F)C(C)C get here?
inactive

Just curious, what result did CC1CC(NN(C)C)C2(C(N)=O)C(N)=NC(=O)C12C#N (stereo not drawn) get here?
inactive

Just curious, what result did O=C(NNC(=S)NCc1ccccc1)C12CC3CC(CC(C3)C1)C2 get here?
inactive

Just curious, what result did CNC(=S)NNc1ncnc2c1c(-c1ccc(Cl)cc1)cn2-c1ccc(C)cc1 get here?
inactive

Just curious, what result did Cn1c2ccccc2n2c3ncccc3c(=O)c(C#N)c12 get here?
inactive

Just curious, what result did COC(=O)C1CCC(=O)N1CN(C(C)=O)c1cc(OC)ccc1OC (stereo not drawn) get here?
inactive

Just curious, what result did NS(=O)(=O)c1ccc(N=C2C(=O)Nc3ccccc32)cc1 get here?
inactive

Just curious, what result did O=c1[nH]c2c(c(=O)[nH]1)SSC2 get here?
inactive

Just curious, what result did CCCCCCCCCCCCCC(=O)OCC1OC(n2cc(F)c(=O)[nH]c2=O)C(N)C(OC(=O)CCCCCCCCCCCCC)C1O (stereo not drawn) get here?
inactive

Just curious, what result did COc1ccc(CCNC(=O)CCCCCO)cc1OC get here?
inactive

Just curious, what result did CC1C(NNc2ccccc2)Oc2cc3c(cc2C1c1ccccc1O)OCO3 (stereo not drawn) get here?
inactive

Just curious, what result did O=C(Nc1ccc(Br)c2ccccc12)c1ccc2ccccc2c1O get here?
active
